# target: Human Cav3.1 calcium channel (Homo sapiens, UniProt O43497)
# Construct: expressed in transfected cells; host or cells: HEK-293 natClytin/TASK1+Cav3.1 cell line
# Sequence (O43497 whole entry): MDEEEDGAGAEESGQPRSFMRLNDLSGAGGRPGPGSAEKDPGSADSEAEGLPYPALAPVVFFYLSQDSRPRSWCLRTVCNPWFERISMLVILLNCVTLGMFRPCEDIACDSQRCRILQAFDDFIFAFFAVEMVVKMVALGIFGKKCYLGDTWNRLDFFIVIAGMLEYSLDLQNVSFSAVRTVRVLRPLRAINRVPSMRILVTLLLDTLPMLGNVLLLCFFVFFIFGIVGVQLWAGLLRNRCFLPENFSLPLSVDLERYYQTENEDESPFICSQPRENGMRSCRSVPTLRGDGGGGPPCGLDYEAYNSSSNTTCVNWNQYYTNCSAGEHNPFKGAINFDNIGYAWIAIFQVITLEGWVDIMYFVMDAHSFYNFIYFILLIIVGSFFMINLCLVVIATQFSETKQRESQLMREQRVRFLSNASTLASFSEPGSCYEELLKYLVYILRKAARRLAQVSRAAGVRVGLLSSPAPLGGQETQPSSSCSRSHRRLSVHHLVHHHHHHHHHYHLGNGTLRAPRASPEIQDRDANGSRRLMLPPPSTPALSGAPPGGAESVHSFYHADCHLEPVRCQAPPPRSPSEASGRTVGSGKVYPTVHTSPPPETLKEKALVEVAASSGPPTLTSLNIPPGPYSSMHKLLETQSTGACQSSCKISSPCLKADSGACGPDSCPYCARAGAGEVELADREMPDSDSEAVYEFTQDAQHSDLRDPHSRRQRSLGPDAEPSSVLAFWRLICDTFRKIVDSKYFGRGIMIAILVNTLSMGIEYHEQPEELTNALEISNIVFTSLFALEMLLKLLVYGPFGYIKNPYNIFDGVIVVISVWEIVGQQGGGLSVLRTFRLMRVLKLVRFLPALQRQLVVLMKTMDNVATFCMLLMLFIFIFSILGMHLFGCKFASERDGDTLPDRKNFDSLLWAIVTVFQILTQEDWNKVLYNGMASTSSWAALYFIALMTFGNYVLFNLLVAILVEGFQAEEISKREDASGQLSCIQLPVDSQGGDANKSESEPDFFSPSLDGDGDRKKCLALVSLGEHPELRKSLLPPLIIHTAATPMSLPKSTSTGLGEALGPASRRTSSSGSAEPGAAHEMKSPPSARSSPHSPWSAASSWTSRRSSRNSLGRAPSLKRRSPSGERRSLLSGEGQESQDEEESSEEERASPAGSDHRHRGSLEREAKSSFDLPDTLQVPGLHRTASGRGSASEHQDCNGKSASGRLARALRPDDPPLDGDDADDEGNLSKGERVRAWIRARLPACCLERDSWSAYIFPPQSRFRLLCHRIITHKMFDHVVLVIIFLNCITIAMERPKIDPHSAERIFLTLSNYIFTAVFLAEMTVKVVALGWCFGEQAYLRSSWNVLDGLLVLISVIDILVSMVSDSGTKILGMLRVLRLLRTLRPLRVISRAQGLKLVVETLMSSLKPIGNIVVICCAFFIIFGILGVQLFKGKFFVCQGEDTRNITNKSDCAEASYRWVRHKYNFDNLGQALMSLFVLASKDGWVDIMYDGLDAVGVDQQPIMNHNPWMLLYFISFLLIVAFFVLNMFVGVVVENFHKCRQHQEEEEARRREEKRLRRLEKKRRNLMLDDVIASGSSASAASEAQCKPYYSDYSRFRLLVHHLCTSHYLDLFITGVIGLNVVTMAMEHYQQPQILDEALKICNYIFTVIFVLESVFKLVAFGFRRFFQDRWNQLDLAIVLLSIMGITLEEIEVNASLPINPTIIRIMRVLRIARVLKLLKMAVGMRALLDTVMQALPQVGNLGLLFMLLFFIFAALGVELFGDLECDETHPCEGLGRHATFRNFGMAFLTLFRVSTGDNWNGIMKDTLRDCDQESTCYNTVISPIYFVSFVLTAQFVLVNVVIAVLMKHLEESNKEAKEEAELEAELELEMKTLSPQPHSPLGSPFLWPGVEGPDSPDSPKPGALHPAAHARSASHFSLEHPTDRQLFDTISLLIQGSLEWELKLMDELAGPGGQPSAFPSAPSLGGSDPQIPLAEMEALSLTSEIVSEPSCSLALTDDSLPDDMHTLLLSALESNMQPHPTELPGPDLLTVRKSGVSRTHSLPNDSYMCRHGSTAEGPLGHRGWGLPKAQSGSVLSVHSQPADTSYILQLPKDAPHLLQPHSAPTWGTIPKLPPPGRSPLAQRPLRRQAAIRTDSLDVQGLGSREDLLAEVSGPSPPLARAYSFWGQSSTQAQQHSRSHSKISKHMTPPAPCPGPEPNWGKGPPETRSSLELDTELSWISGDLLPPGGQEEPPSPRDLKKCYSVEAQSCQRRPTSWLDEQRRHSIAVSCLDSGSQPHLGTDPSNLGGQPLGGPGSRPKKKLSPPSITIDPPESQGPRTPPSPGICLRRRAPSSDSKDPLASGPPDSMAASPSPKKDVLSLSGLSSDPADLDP
# assay_method_text: Human Cav3.1 calcium channel patch clamp assay (SyncroPatch 384PE; single point and IC50, voltage dependent block)
# Type: cell-based
# test_context: Testing Conc 1.25; HEK-293 natClytin/TASK1+Cav3.1 cell line, patch clamp
Examples of compounds with documented % Inhibition (Single Point Data) follow.

smiles_record	target	uom	% Inhibition (Single Point Data)
COc1cc(F)cc(NC(=O)CN2C[C@@H]3C[C@H]2CN3CC(=O)NC2(C(F)(F)F)CC2)c1	Human Cav3.1 calcium channel (Homo sapiens, UniProt O43497)	%	87.599
CC(C)(C)NC(=O)CN1C2CC1CN(CC(=O)NC13CCC(CC1)C3)C2	Human Cav3.1 calcium channel (Homo sapiens, UniProt O43497)	%	33.02
CC(C)(C)NC(=O)CN1C2CCC1CN(Cc1nc3ccccc3[nH]1)C2	Human Cav3.1 calcium channel (Homo sapiens, UniProt O43497)	%	75.55
CC(C)(NC(=O)CN1C2CC1CN(Cc1nc3c(Cl)ccc(F)c3[nH]1)C2)C(F)(F)F	Human Cav3.1 calcium channel (Homo sapiens, UniProt O43497)	%	102.49
CC(C)(C)NC(=O)CN1CCCN(Cc2nc3c(Cl)cc(F)cc3[nH]2)CC1	Human Cav3.1 calcium channel (Homo sapiens, UniProt O43497)	%	87.175

* * *

# target: Human Cav3.1 calcium channel (Homo sapiens, UniProt O43497)
# Construct: expressed in transfected cells; host or cells: HEK-293 natClytin/TASK1+Cav3.1 cell line
# assay_method_text: Human Cav3.1 calcium channel patch clamp assay (SyncroPatch 384PE; single point and IC50, voltage dependent block)
# Format: cell-based
# test_context: Testing Conc 1.25; HEK-293 natClytin/TASK1+Cav3.1 cell line, patch clamp
# Protocol: Certain compounds (as indicated) were tested for Human Cav3.1 calcium channel activity via a patch clamp assay as disclosed herein. Pulse generation and data collection were performed with PatchController384 V1.3.0 and DataController384 V1.2.1 (Nanion Technologies). […] Current was recorded in whole cell configuration from a population of cells. […] Currents were recorded at room temperature. […]
quantity: % Inhibition (Single Point Data) (%)

smiles_record	recorded_number
Fc1cc(Cl)c2nc(CN3CCN(Cc4cccc(Cl)c4)CC3)[nH]c2c1	83.039
CC(C)(C)NC(=O)CN1C2CCC1CN(CC(=O)NCc1cc3ccccc3o1)C2	22.469
O=C(CN1C2CC1CN(Cc1nc3c(Cl)cc(F)cc3[nH]1)C2)OC1CCCC1	100.15
O=C(CN1CC2CC(C1)N2CC(=O)NC1(C(F)(F)F)CC1)Nc1ccc(F)c(C(F)F)c1	72.234
CC1(C(=O)NCCN2C3CC2CN(Cc2nc4c(Cl)cc(F)cc4[nH]2)C3)CC1	96.032
CC1(C)CN(C(=O)CN2C3CCC2CN(Cc2nc4c(Cl)cc(F)cc4[nH]2)C3)C1	97.882
CC(C)(C)NC(=O)CN1C2CC1CN(CC(=O)Nc1cc(F)cc(C#N)c1)C2	80.621
CC(C)(C)NC(=O)CN1CC2COCC(C1)N2Cc1nc2c(Cl)cc(F)cc2[nH]1	82.059
O=C(CN1CCN(CC(=O)NC2(C(F)(F)F)CC2)CC1)Nc1cc(F)cc(OC(F)F)c1	39.211
COC12CC3CC(CC(NC(=O)CN4C[C@@H]5C[C@H]4CN5CC(=O)NC(C)(C)C)(C3)C1)C2	25.743
